- System: Leishmania amazonensis
- assay name: Antileishmanial activity against Leishmania amazonensis MHOM/Br/75/Josefa promastigotes by MTT colorimetric method
- Format: functional, organism-based
result type: pIC50
Reminder that pIC50 is minus the log10 of a molar concentration.

For reference, reported pIC50 for C[C@@H]1[C@H](O)[C@@H](C)/C=C/C=C/C=C/C=C/C=C/C=C/C=C/[C@H](O[C@@H]2O[C@H](C)[C@@H](O)[C@H](N)[C@@H]2O)C[C@@H]2O[C@](O)(C[C@@H](O)C[C@@H](O)[C@H](O)CC[C@@H](O)C[C@@H](O)CC(=O)O[C@H]1C)C[C@H](O)[C@H]2C(=O)O stands at 6.05

For reference, reported pIC50 for O=C(O)CSc1ncnc2[nH]cnc12 stands at 4.41

For reference, reported pIC50 for NCCSCCCSc1ncnc2[nH]cnc12 stands at 4.30

For reference, reported pIC50 for ClCCCSc1ncnc2[nH]cnc12 stands at 4.30

For reference, reported pIC50 for CO[C@@H]1O[C@H](CSc2ncnc3[nH]cnc23)[C@@H](O)[C@H]1O stands at 4.54
